# ASSAY_DETAILS: Selectivity index, ratio of GI50 for human HeLa cells to MIC for active stage of Mycobacterium tuberculosis H37Ra ATCC 25177
# Type: toxicity, cell-based
# CONDITION_DESCRIPTION: read-out: Selectivity Index
QUANTITY: selectivity ratio
Numbers only.

CCCc1cc2c(=O)n(CCCSc3nc(-c4cc(OC)c(OC)c(OC)c4)c(C#N)c(=O)[nH]3)cnc2s1 ... 2
COc1cc(-c2nc(SCCCn3cnc4sc5c(c4c3=O)CCCC5)n(C)c(=O)c2C#N)cc(OC)c1OC ... 3
COc1cc(-c2nc(SCCCn3cnc4sc5c(c4c3=O)CCCC5)n(CCCn3cnc4sc5c(c4c3=O)CCCC5)c(=O)c2C#N)cc(OC)c1OC ... 3
N#Cc1c(-c2ccc(O)cc2)[nH]c(=S)[nH]c1=O ... 3
CCCCCc1cc2c(=O)n(CCCSc3nc(-c4cc(OC)c(OC)c(OC)c4)c(C#N)c(=O)[nH]3)cnc2s1 ... 3

For the 6 compounds below, give their selectivity ratio values.
1. C#CCn1c(SCCCn2cnc3sc4c(c3c2=O)CCCC4)nc(-c2cc(OC)c(OC)c(OC)c2)c(C#N)c1=O
2. CCCCCCCc1cc2c(=O)n(CCCSc3nc(-c4cc(OC)c(OC)c(OC)c4)c(C#N)c(=O)[nH]3)cnc2s1
3. CO[C@H]1/C=C/O[C@@]2(C)Oc3c(C)c(O)c4c(O)c(c(/C=N/N5CCN(C)CC5)c(O)c4c3C2=O)NC(=O)/C(C)=C\C=C\[C@H](C)[C@H](O)[C@@H](C)[C@@H](O)[C@@H](C)[C@H](OC(C)=O)[C@@H]1C
4. CCCCCCCc1cc2c(=O)n(CCSc3nc(-c4cc(OC)c(OC)c(OC)c4)c(C#N)c(=O)[nH]3)cnc2s1
5. COc1cc(-c2nc(SCCCn3cnc4sc5c(c4c3=O)CCCC5)[nH]c(=O)c2C#N)cc(OC)c1OC
6. COc1cc(-c2nc(SCCCn3cnc4sc5c(c4c3=O)CCCC5)n(Cc3ccccc3)c(=O)c2C#N)cc(OC)c1OC

A.
1: 2; 2: 3; 3: 244; 4: 7; 5: 2; 6: 2

Q. Which value of selectivity ratio has been reported for COc1cc(-c2[nH]c(=S)[nH]c(=O)c2C#N)cc(OC)c1OC in the records?
A. 2
